assayedTarget: CDK2 (human)
testSummary: Enzyme Assay
measuredAttribute: pIC50
Scale: negative log10 of molar concentration, which is what pIC50 denotes.

Inquiry: Record CN1CCN(c2ccc(Nc3ncc4cc(C#N)c(=O)n(C5CCCC5)c4n3)cc2)CC1 : what is its pIC50 with CDK2 (human)?
Reply text: 5.87

###

assayedTarget: PIK3CA (human)
testSummary: Inhibition of PIK3CA Kinase Activity
measuredAttribute: pIC50
Scale note: pIC50 = -log10(concentration in M).

Inquiry: Name the recorded pIC50 for O=C1NC(=O)/C(=C/c2ccc(-c3cc(F)cc(F)c3O)o2)S1 .
Reply text: 6.47

Inquiry: Param item: c1cc(-c2nc(N3CCOCC3)c3sccc3n2)c2cn[nH]c2c1
Reply text: 7.40

Inquiry: Again, but for CN(COC(=O)[C@@H]1CC(=O)c2coc3c2[C@@]1(C)c1ccc2c(c1C3=O)CCC2=O)c1ccc([N+](=O)[O-])c2nonc12
Reply text: 8.02

Inquiry: What about this compound? NCc1cccc(C(=O)Nc2cccc(-c3nc(-c4cccc(CO)c4)cc(N4CCOCC4)n3)c2)c1
Reply text: 6.00
